# system: T1, human TF ECD-His (hTF-his) (human, UniProt P13726 33-251)
# T1 construct: also called bio-hTF-his; human TF-His protein
# methodSummary: SPR Biacore T200, antibody on Protein A chip, TF-His as analyte, 1:1 model
Listed below: koff values for each entry.
Numeric only. Scale: s⁻¹

Reference set, count: 3
binder	readoutLabel	unitSymbol	measuredNumber
hu67-6 (antibody, human IgG1, kappa, V domains shown) VH: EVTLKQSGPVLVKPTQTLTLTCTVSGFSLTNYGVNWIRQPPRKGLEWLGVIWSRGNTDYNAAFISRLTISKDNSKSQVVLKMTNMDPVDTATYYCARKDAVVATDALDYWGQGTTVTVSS VL: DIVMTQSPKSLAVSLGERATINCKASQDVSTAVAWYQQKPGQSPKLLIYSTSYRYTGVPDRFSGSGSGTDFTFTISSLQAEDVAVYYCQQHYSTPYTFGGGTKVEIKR	koff	s⁻¹	0.000652
hu67-1 (antibody, human IgG1, kappa, V domains shown) VH: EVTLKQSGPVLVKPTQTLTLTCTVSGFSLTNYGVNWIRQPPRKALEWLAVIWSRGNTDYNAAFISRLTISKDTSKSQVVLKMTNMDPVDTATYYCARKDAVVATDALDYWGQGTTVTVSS VL: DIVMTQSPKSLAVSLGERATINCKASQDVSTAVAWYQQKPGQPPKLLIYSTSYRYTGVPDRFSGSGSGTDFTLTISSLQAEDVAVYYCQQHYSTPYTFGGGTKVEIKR	koff	s⁻¹	0.000585
hu67-5 (antibody, human IgG1, kappa, V domains shown) VH: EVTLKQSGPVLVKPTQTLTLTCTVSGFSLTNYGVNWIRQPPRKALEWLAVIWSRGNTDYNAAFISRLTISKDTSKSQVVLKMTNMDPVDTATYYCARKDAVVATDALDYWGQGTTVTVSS VL: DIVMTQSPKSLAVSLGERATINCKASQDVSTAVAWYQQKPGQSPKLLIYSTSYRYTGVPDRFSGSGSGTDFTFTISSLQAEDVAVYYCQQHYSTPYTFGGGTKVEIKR	koff	s⁻¹	0.000582

We next turn to a different binder, shown below.
Report koff, nothing else, for this binder: hu67-10 (antibody, human IgG1, kappa, V domains shown) VH: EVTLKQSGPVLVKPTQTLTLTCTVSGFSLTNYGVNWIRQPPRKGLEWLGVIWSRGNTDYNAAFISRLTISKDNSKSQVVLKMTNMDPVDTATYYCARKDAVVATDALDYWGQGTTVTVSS VL: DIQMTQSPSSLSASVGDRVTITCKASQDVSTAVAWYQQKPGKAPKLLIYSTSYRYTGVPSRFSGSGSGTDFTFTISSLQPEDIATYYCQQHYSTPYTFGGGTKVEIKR
0.000594
